# Test system: JNK1;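 note: KINOMEscan kinase panel screen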
# Construct: gene MAPK8
# condition info: concentration: 1 μM, replicates: in singlicate; n = 1
// classify(record): look up %Inh in ranges 0 (below 3%), 1 (3% to below 20%), 2 (20% or more)

Example entries begin here.
Qu. Hey, which category is Cl.c1ccc(-c2n[nH]cc2-c2ccnc(-c3ccc(CN4CCOCC4)cc3)c2)nc1 in, do you know?
Ans. 2

Qu. Similarly, COc1ccccc1-c1ccc2c(NC(=O)C3CC3)n[nH]c2n1 ?
Ans. 0

Qu. Similarly, COc1ccc(Nc2nccc(-c3cccc(NC(=O)c4cc5cc(F)ccc5[nH]4)c3)n2)cc1 ?
Ans. 2

Qu. Similarly, COc1ccc(C2=C(Nc3cccc(C(=O)O)c3)C(=O)NC2=O)cc1 ?
Ans. 2

Qu. Similarly, Cc1ccc(NC(=O)Nc2cc(C(C)(C)C)nn2-c2ccccc2)cc1 ?
Ans. 2

New cases:
Qu. Hey, which category is Fc1cccc(COc2nnc(-c3ccc4c(c3)CCO4)o2)c1 in, do you know?
Ans. 1

Qu. Similarly, Nc1ncnc2[nH]c(-c3ccccc3)nc12 ?
Ans. 1

Qu. Similarly, Cn1ccc2ncnc(Oc3ccc(NC(=O)Nc4ccccc4)cc3)c21 ?
Ans. 2

Qu. Similarly, Cc1cc(NCC(c2ccccc2)c2ccccc2)nc(NCc2ccc(C(F)(F)F)cc2)n1 ?
Ans. 0

Qu. Similarly, CC(=O)Nc1nc2cnc(Nc3cc(NC(=O)c4cccc(CCC#N)c4)ccc3C)nc2s1 ?
Ans. 0
